Target: T1, BsoBI restriction endonuclease (UniProt P70985 P70985:1-323)
T1 sequence: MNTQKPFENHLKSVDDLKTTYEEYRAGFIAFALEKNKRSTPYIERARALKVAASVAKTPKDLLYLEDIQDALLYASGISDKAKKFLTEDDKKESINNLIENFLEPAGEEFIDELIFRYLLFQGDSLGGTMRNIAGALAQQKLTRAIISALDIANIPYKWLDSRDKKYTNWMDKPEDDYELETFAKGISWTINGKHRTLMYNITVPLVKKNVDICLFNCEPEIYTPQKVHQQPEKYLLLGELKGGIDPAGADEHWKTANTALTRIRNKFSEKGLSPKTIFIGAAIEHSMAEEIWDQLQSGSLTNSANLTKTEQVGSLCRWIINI
Test: filter; 4 mM CaCl2, non-specific control; ±143
Conditions: tags: untagged, expressed from pRRS-bsoBIR in E. coli ER2683; chain copies: 2 inferred; label: 33P 5' end
Result type: pKd
Reminder that pKd is minus the log10 of a molar concentration.

Record summary for N (CATAAC, non-specific) (dsDNA) DNA 1: GAGTGTTATGGGTAGCATAACTGAAGTGGGAATATC DNA 2: GATATTCCCACTTCAGTTATGCTACCCATAACACTC : reported pKd = 8.84
